# method: Intrinsic clearance in mouse liver microsomes assessed per mg protein after 60 mins in presence of NADPH generating system
# Assay type: ADME, microsome
# conditionNotes: 1 h
What CLH was measured for each of the following?
One number for each entry, in µL/min/mg.

Worked set:
>>> print(df.to_string())
                          structurenotation  experimentalendpoint          u  measurednumber
0  NC(=O)c1ccccc1NC(=O)Nc1ccc(F)c(C(F)(F)F)c1                   CLH  µL/min/mg              69
1      O=C(Nc1ccc(F)c(C(F)(F)F)c1)Nc1cnccn1                   CLH  µL/min/mg             160
2                   O=C(Nc1cnccn1)Nc1cnccn1                   CLH  µL/min/mg             157
3  O=C(Nc1ccc2c(c1)OC(F)(F)O2)Nc1ccc2c(c1)OC(F)(F)O2                   CLH  µL/min/mg              12
4  O=C(Nc1ccc(F)c(C(F)(F)F)c1)Nc1ccc(F)c(C(F)(F)F)c1                   CLH  µL/min/mg               7
5  O=C(Nc1ccnc(C(F)(F)F)c1)Nc1ccc2c(c1)OC(F)(F)O2                   CLH  µL/min/mg              16

Here is the next item to consider.
Q) Dear colleague, please send me the reported CLH for O=C(Nc1cccnc1)Nc1ccc(F)c(C(F)(F)F)c1 when you can.
A) 154

====

# method: Intrinsic clearance in mouse liver microsomes assessed per mg protein after 60 mins in presence of NADPH generating system
# Type: ADME, microsome
# conditionNotes: 1 h
Strictly below 20 µL/min/mg in CLH: fulfilled. Otherwise: not fulfilled.

// below: answered compounds
>>> df
                          structurenotation          label
0  O=C(Nc1cccc(C(=O)O)c1)Nc1ccc(F)c(C(F)(F)F)c1      fulfilled
1    Cc1cc(NC(=O)Nc2ccc(F)c(C(F)(F)F)c2)on1  not fulfilled
2  N#Cc1ccc(NC(=O)Nc2ccc(F)c(C(F)(F)F)c2)cc1      fulfilled
3  NC(=O)c1ccc(NC(=O)Nc2ccc(F)c(C(F)(F)F)c2)cc1  not fulfilled
4  CC(=O)c1ccc(NC(=O)Nc2ccc(F)c(C(F)(F)F)c2)cc1      fulfilled

Q) Determine if O=C(Nc1ccnc(C(F)(F)F)c1)Nc1ccc(F)c(C(F)(F)F)c1 shows CLH strictly lower than 20 µL/min/mg.
A) fulfilled

Q) Determine if O=C(Nc1ccc(F)c(C(F)(F)F)c1)Nc1ccccn1 shows CLH strictly lower than 20 µL/min/mg.
A) not fulfilled

Q) Determine if O=C(Nc1ccc(C(=O)O)cc1)Nc1ccc(F)c(C(F)(F)F)c1 shows CLH strictly lower than 20 µL/min/mg.
A) fulfilled

Q) Determine if O=C(Nc1ccnc(C(F)(F)F)c1)Nc1ccnc(C(F)(F)F)c1 shows CLH strictly lower than 20 µL/min/mg.
A) fulfilled

Q) Determine if O=C(Nc1ccncc1)Nc1ccncc1 shows CLH strictly lower than 20 µL/min/mg.
A) not fulfilled

Q) Determine if O=C(Nc1ccncc1)Nc1ccc(F)c(C(F)(F)F)c1 shows CLH strictly lower than 20 µL/min/mg.
A) not fulfilled
